Hey, just so you know, these numbers are from ChEMBL document CHEMBL5356973.

Give Emax for every item shown.
Target: Mu-type opioid receptor (Homo sapiens, UniProt P35372)
Sequence (P35372 whole entry): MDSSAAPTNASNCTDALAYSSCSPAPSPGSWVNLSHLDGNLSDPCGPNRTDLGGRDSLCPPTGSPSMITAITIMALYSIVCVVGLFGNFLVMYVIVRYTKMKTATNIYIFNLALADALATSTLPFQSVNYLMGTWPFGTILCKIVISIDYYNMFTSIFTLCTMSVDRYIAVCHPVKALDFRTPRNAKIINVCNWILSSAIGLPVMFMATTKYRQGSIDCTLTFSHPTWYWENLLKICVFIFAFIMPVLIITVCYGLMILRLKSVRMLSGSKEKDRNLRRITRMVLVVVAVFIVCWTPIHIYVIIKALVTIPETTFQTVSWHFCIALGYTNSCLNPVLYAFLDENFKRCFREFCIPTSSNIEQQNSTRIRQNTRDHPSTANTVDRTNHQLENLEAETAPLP
Assay: Agonist activity at MOR (unknown origin) transfected in CHO cells co-expressing Galphaq15 assessed as increase in calcium mobilization by measuring maximal efficacy by Fluo-4AM dye based assay relative to control
Format: functional, cell-based
Conditions: filed as agonist
// units = %; emit number, no label

Exercise: Fill in the blank: the reported Emax of CN1C(=O)CNC(=O)[C@H](N[C@@H](Cc2ccc(O)cc2)C(=O)O)CCCC/C=C/C[C@@H](C(=O)N2CCC[C@H]2C(=O)N[C@@H](CCC(N)=O)C(=O)N[C@@H](CCCNC(=N)N)C(=O)N[C@@H](Cc2ccccc2)C(N)=O)NC(=O)[C@@H]1Cc1ccccc1 is ____.
Key: 95

Exercise: Fill in the blank: the reported Emax of CN1C(=O)CNC(=O)[C@H](N[C@@H](Cc2ccc(O)cc2)C(=O)O)CCCC/C=C/CC[C@@H](C(=O)N2CCC[C@H]2C(=O)N[C@@H](CCC(N)=O)C(=O)N[C@@H](CCCNC(=N)N)C(=O)N[C@@H](Cc2ccccc2)C(N)=O)NC(=O)[C@@H]1Cc1ccccc1 is ____.
Key: 84.6

Exercise: Fill in the blank: the reported Emax of CN1C(=O)CNC(=O)[C@@H](N[C@@H](Cc2ccc(O)cc2)C(=O)O)C/C=C/CCCC[C@H](C(=O)N2CCC[C@H]2C(=O)N[C@@H](CCC(N)=O)C(=O)N[C@@H](CCCNC(=N)N)C(=O)N[C@@H](Cc2ccccc2)C(N)=O)NC(=O)[C@@H]1Cc1ccccc1 is ____.
Key: 81
